Provenance of the data: ChEMBL document CHEMBL3585290

System: KB
Experiment: Cytotoxicity against human KB cells after 48 hrs by MTT assay
Assay type: functional, cell-based
Quantity: pIC50
Please treat pIC50 as minus the base-10 logarithm of the molar concentration.

Solved cases (2 shown):
O=C(OCCCCCCCOC(=O)c1cc2c3ccccc3n(CCCc3ccccc3)c2cn1)c1cc2c3ccccc3n(CCCc3ccccc3)c2cn1 :: 4.10
O=C(OCCCCCCCCCOC(=O)c1cc2c3ccccc3n(Cc3cccc(Cl)c3)c2cn1)c1cc2c3ccccc3n(Cc3cccc(Cl)c3)c2cn1 :: 4.15

State the recorded pIC50 for this entry: CCCCn1c2ccccc2c2cc(C(=O)OCCCCOC(=O)c3cc4c5ccccc5n(CCCC)c4cn3)ncc21 4.05

----------
Test system: 769-P
Assay: Cytotoxicity against human 769-P cells after 48 hrs by MTT assay
Type: functional, cell-based
// reported pIC50 per item
Please treat pIC50 as minus the base-10 logarithm of the molar concentration.

O=C(OCCCOC(=O)c1cc2c3ccccc3n(CCCc3ccccc3)c2cn1)c1cc2c3ccccc3n(CCCc3ccccc3)c2cn1 :: 4.02
O=C(OCCCCOC(=O)c1cc2c3ccccc3n(Cc3ccccc3)c2cn1)c1cc2c3ccccc3n(Cc3ccccc3)c2cn1 :: 4.34

State the recorded pIC50 for this entry: Cc1nc(C(=O)OCCCCCCCCCCOC(=O)c2cc3c4ccccc4n(C)c3c(C)n2)cc2c3ccccc3n(C)c12 4.37

What do we get for Cc1nc(C(=O)OCCCCCOC(=O)c2cc3c4ccccc4n(Cc4ccccc4)c3c(C)n2)cc2c3ccccc3n(Cc3ccccc3)c12 ? 4.14

What do we get for CCn1c2ccccc2c2cc(C(=O)OCCCCCCCCOC(=O)c3cc4c5ccccc5n(CC)c4c(C)n3)nc(C)c21 ? 4.66

What do we get for CCCCn1c2ccccc2c2cc(C(=O)OCCCCCCCCCCOC(=O)c3cc4c5ccccc5n(CCCC)c4cn3)ncc21 ? 4.05

----------
Test system: KB
Test: Cytotoxicity against human KB cells after 48 hrs by MTT assay
Format: functional, cell-based
pIC50: −log10 of the molar value.
Is pIC50 at least 4? Then Yes. If not, No.

Example entries begin here.
Cc1nc(C(=O)OCCCCCOC(=O)c2cc3c4ccccc4n(Cc4ccccc4)c3c(C)n2)cc2c3ccccc3n(Cc3ccccc3)c12 :: Yes
COc1ccc(-c2nc(C(=O)OCCCCCCOC(=O)c3cc4c5ccccc5n(CCCc5ccccc5)c4c(-c4ccc(OC)cc4)n3)cc3c4ccccc4n(CCCc4ccccc4)c23)cc1 :: No
O=C(OCCCCCCOC(=O)c1cc2c3ccccc3n(Cc3ccccc3)c2cn1)c1cc2c3ccccc3n(Cc3ccccc3)c2cn1 :: Yes

Could you verify whether the entry CCn1c2ccccc2c2cc(C(=O)OCCCCCCCCOC(=O)c3cc4c5ccccc5n(CC)c4c(C)n3)nc(C)c21 shows pIC50 of no less than 4? No

What do we get for Cc1nc(C(=O)OCCCCCCCCCCOC(=O)c2cc3c4ccccc4n(C)c3c(C)n2)cc2c3ccccc3n(C)c12 ? No

What do we get for CCCCn1c2ccccc2c2cc(C(=O)OCCCCCCOC(=O)c3cc4c5ccccc5n(CCCC)c4cn3)ncc21 ? Yes

What do we get for Cc1nc(C(=O)OCCCCCCCCCOC(=O)c2cc3c4ccccc4n(CCCc4ccccc4)c3c(C)n2)cc2c3ccccc3n(CCCc3ccccc3)c12 ? Yes

What do we get for Cc1nc(C(=O)OCCCCCCOC(=O)c2cc3c4ccccc4n(C)c3c(C)n2)cc2c3ccccc3n(C)c12 ? No
